Listing of recorded growth by entry.
# Tested on: HS 578T breast
# Experimental Protocol: NCI-60 one-dose screen, 48 h (100 = growth as untreated, 0 = no growth, -100 = all killed)
# Recorded Conditions: 10 µM
# Experimental: Growth inhibition of the HS 578T human tumor cell line is measured as a screen for anti-cancer activity. Cells are grown in 96 well plates and exposed to the test compound for 48 hours. Compounds are tested at a single concentration, which is 10^-5 M for most compounds. The reported endpoint is percent growth (GI% or GIPRCNT), where numbers from 0 - 100% represent growth inhibition, and numbers from -100% - 0 represent cell death. For example, a value of 40 represents 60% growth inhibition. […]
Compounds without any hit were thinned out: in the full panel of roughly 83,000, 20% have a hit. Calls of active or inactive are those of the source. Rule for the calls: active = growth percent below 10; inactive = the rest.

Compound	growth
CC(C)=CCc1cc(O)cc2c1OC(C=C(C)C)C1=C2C(=O)C2=C(NCCS2(=O)=O)C1=O (stereo unspecified)	11.2% (inactive)
COc1ccc2c(c1)O/C(=C\c1ccc([N+](=O)[O-])o1)C2=O	21.4% (inactive)
CSc1nn(-c2ccccc2)c2ncnc(Oc3ccccc3)c12	148% (inactive)
COc1ccc(C(=O)/C=C/c2cc(-c3cc(OC)c(OC)c(OC)c3)n[nH]2)cc1	71.3% (inactive)
Cc1nc2oc3ccccc3c(=O)c2cc1C(=O)NCc1ccccc1	105% (inactive)
CC1(C)OC2=C(CC1Br)C(=O)C(=O)c1ccccc12 (stereo unspecified)	8.65% (active)
CCN(CC)CCC(CNc1c(C)cnc2cc(Cl)ccc12)c1ccc(Cl)cc1 (stereo unspecified)	70.1% (inactive)
O=C(CCCCCCC(=O)Nc1cccnc1)NO	34.6% (inactive)
COc1cccc(C(=O)Nc2ccc(CN3CCc4nc5cc(OC)c(OC)cc5cc43)cc2)c1	61.2% (inactive)
N=c1nc(N)ncn1-c1ccccc1	101% (inactive)
O=C1/C(=C\c2ccccc2)CN(C(=O)c2ccccc2F)C/C1=C\c1ccccc1	-10.1% (active)

* * *

# Test system: RXF 393 renal
# Experimental Protocol: NCI-60 one-dose screen, 48 h (100 = growth as untreated, 0 = no growth, -100 = all killed)
# Recorded Conditions: 10 µM
Compounds without any hit were thinned out: in the full panel of roughly 83,000, 20% have a hit.
Readout Type: growth (%)

Molecule	Readout Type	Experimental Value
c1ccc2c(c1)oc1c3c(ccc12)NCCC3	growth	107
Cc1cc2c(C)c3cc(C)c(N)cc3nc2cc1N	growth	16.3
COc1cc(-c2cc(C(=O)N3CCN(C(=O)c4ccccc4NCc4cccs4)CC3)nc3cc(-c4ccccc4)nn23)cc(OC)c1OC	growth	62.3
O=C(Nc1cccc(-n2cc(-c3ccncc3)c(-c3ccc(O)c(Cl)c3)n2)c1)c1cccc(C(F)(F)F)c1	growth	-12.4
COc1ccc(OC)c2c1C(=O)CC2C (stereo not drawn)	growth	98.3
O=[N+]([O-])c1ccc(N/N=C/c2cccc3ccccc23)nc1	growth	112
COc1cc(C2CC(c3ccc(Nc4ccnc5cc(Cl)ccc45)cc3)=NN2c2ccc(Cl)cc2)cc(OC)c1OC (stereo not drawn)	growth	60.4
CCOC(=O)c1ccc(NC(=O)Nc2ncc(Cl)cc2Cl)cc1	growth	100
COc1cc(-c2cc(/C=C3\C(=O)Nc4cc(Cl)ccc43)[nH]n2)cc(OC)c1OC	growth	75.3
N=c1c2c(-c3ccccc3)c(-c3ccccc3)n(Cc3ccccc3)c2ncn1CCCO	growth	12.7
O=C1OCC2=C1C(c1ccc(Cl)c(Cl)c1)c1cc3c(cc1N2CCO)OCCO3 (stereo not drawn)	growth	8.18
CC(=O)c1nc2ccccc2n1CCN1CCN(C)CC1	growth	48
CN(C)CCN1C(=O)c2cccc3c(-c4ccc5ncn(C6CCCCC6)c5c4)ccc(c23)C1=O	growth	26.3
COc1ccc2c(c1)sc1nc(-c3ccccc3)c(-c3ccc(O)c(OC)c3)n12	growth	104
Nc1nc(N=Nc2ccc(O)cc2)cc(=O)[nH]1	growth	74.4
Nc1ncn(C2OC(CO)C(O)C2O)c(=O)n1 (stereo not drawn)	growth	10.6
CCOCC(=O)C(C#N)c1ccc(Cl)c(Cl)c1 (stereo not drawn)	growth	94.8
COc1ccc(-c2nn(-c3cccc(NC(=O)c4ccc(Cl)c(Cl)c4)c3)cc2-c2ccncc2)cc1Cl	growth	65.9
COc1ccc2c(c1)C(=O)c1c-2c(=O)n(CCCN(C)C)c2cc(OC)c(OC)cc12	growth	89.4
COc1ccc(-c2ccc(-c3ccc(C(=N)N)cn3)o2)cc1	growth	85.7
O=C(NC(Cc1ccc(O)cc1)C(=O)N=Nc1c(O)[nH]c2ccccc12)c1ccccc1 (stereo not drawn)	growth	108
Clc1ccc2c(NCCCNc3nccc(Nc4ccc(Br)cc4)n3)ccnc2c1	growth	-92.7
Cc1ccc(-c2nc(/C=C3/C(=O)N(C)c4ccc(F)cc43)c3ccccn23)cc1	growth	97.9
c1ccc([I+]c2ccccc2)cc1	growth	60.4
Cc1ccc(Nc2cc(C)nc(NCCCNc3ccnc4cc(Cl)ccc34)n2)cc1	growth	-92.1
N=C(N)c1ccc(-c2ccc(-c3ccccc3)o2)nc1	growth	106
CCOC(=O)C1CCc2c(ccc3ccccc23)N1CCC#N (stereo not drawn)	growth	89
CC1=C(N2CCOCC2)C(N2CCOCC2)=C(C)C(=O)C1=O	growth	101
COc1ccc(OC)c(/C=C/c2nc(SC)n(-c3ccc(Cl)cc3)n2)c1	growth	59.7
COc1ccc(-c2nn(-c3cccc(NC(=O)c4cc(C(F)(F)F)cc(C(F)(F)F)c4)c3)cc2-c2ccncc2)cc1Cl	growth	62.8
CCN(CC)Cc1cc(Nc2ccnc3cc(Cl)ccc23)ccc1OC	growth	64.2
CSc1nc(=O)n(Cc2ccc(Cl)cc2)c(=O)[nH]1	growth	115
CC(=O)c1cc(Cl)ccc1O	growth	106
C#Cc1ccc(-n2c(/C=C/c3ccc4ccccc4c3)nc3ncccc3c2=O)cc1	growth	-21.4
CCCCCCCNc1nc(C=O)ncc1-c1ccc(C(F)(F)F)cc1	growth	97
c1ccc2c(-c3nc(N4CCOCC4)c4c5c(sc4n3)CCCCCC5)cccc2c1	growth	95.9
COc1ccc2c(c1)-c1c(c3cc(OC)ccc3n(CCN(C)C)c1=O)C2=O	growth	25.2
COc1cc(C(=O)/C=C/c2cc(-c3cc(OC)c(OC)c(OC)c3)n[nH]2)cc(OC)c1OC	growth	-84.3
O=[N+]([O-])c1ccc(Oc2cc(Cl)c(Cl)cc2Cl)c(C(F)(F)F)c1	growth	96.4
CC/C(C)=C(\C)C(=O)O	growth	110
Cc1cccc2c(NCCN(C)C)c3cccc(C(=O)NCCN(C)C)c3nc12	growth	8.33
COc1ccccc1CNCCCN1C(=O)c2ccc3c4c(ccc(c24)C1=O)C(=O)N(CCCN)C3=O	growth	-56
COc1cc(/C=C/C(=O)c2ccc(Cl)cc2)ccc1OS(=O)(=O)c1ccc(C)cc1	growth	117
